Molecular target: T1, human FcRH5 protein fragment (soluble) (human, UniProt Q96RD9 16-851)
T1 construct: whole entry named; also called soluble human FcRH5; Human FcRH5 (BIACORE analyte)
T1 sequence: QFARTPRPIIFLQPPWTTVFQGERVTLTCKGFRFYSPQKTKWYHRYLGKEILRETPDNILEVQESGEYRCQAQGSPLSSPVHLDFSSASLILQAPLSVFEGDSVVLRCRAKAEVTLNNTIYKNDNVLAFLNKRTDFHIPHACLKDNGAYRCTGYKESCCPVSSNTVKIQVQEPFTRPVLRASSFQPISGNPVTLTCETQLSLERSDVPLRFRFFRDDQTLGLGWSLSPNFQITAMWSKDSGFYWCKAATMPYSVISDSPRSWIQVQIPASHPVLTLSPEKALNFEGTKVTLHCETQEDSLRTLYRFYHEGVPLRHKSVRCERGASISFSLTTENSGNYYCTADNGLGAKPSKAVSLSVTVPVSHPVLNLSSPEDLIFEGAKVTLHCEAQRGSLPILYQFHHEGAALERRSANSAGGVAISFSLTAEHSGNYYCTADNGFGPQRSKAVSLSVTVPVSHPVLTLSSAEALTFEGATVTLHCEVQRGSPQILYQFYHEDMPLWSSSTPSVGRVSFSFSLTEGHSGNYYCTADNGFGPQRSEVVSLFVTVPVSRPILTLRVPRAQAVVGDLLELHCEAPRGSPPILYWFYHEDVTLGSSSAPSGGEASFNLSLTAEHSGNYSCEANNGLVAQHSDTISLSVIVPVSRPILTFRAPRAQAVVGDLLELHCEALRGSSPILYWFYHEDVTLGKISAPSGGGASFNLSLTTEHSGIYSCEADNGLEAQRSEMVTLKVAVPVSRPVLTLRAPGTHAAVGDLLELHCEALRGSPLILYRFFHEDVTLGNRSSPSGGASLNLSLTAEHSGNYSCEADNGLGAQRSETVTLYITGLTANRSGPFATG
Assay: SPR (BIACORE), IgG captured via anti-human IgG, FcRH5 protein fragment as analyte (100 and 500 nM)
Procedure: Briefly, a human IgG capture surface was generated on a Series S CM5 chip using amine coupling and the human IgG capture kit (GE Life Sciences, Piscataway, NJ). Test antibodies were then captured on flow cells 2, 3, or 4, with flow cell 1 used as a reference. […] Interactions were assessed at 25° C. in 10 mM HEPES pH7.4, 150 mM NaCl, and 0.05% Tween 20 (HBSP). […] Kinetic information was calculated by fitting data to a 1:1 binding model. […]
experimental-endpoint: Kd (nM)
Reply numerically in nM, unit not repeated.

[ask] Tell me its Kd given hu1G7.v1 heavy chain M64L with light chain of hu1G7.v1.6 (antibody, V domains shown, human IgG) VH: EVQLVESGPGLVKPSETLSLTCTVSGFSLTRFGVHWVRQPPGKGLEWLGVIWRGGSTDYNAAFLSRLTISKDNSKNQVSLKLSSVTAADTAVYYCSNHYYGSSDYALDNWGQGTLVTVSS VL: DIQMTQSPSSLSASVGDRVTITCKASQDVSNIVVWFQQKPGKAPKLLIYSGYYRYSGVPSRFSGSGSGTDFTLTISSLQPEDFATYYCQQQYQPPYTFGQGTKVEIK as the entry.
[reply] 2.6

[ask] Tell me its Kd given hu1G7.v1 heavy chain M64I with light chain of hu1G7.v1.3 (antibody, V domains shown, human IgG) VH: EVQLVESGPGLVKPSETLSLTCTVSGFSLTRFGVHWVRQPPGKGLEWLGVIWRGGSTDYNAAFISRLTISKDNSKNQVSLKLSSVTAADTAVYYCSNHYYGSSDYALDNWGQGTLVTVSS VL: DIQMTQSPSSLSASVGDRVTITCKASQDVRNIVVWFQQKPGKAPKLLIYSGSYRYSGVPSRFSGSGSGTDFTLTISSLQPEDFATYYCQQQYSPPYTFGQGTKVEIK as the entry.
[reply] 2.1

Where these numbers come from: patent US20240383984A1
